The reported measurements were obtained from the nanobody polyreactivity screen of Harvey et al. (2022).

- protocolText: yeast display, Sf9 membrane polyspecificity reagent, FACS + sequencing; frameworks hold sequencing errors
endpoint: polyreactivity (PSR sort gate)

[[record]]
macromoleculesequence = "QVQHVESGGRLVQAVGSLRLSCAASGFTFTRHAMGWYRQAPGKERDLVSRISSRGGSTYYADSVKGRFTISRDNAKNTVYLQMNSLKPEDTAVFYCAAPVRKSSYTRYDSWGQGTQVTVSS"
endpoint = "polyreactivity (PSR sort gate)"
testresult = "high polyreactivity"

[[record]]
macromoleculesequence = "QVQLVESGGGLVQAGGSLRLSCAASGITFRGYAMGWYRQAPGKERELVADITWNGGSTYYADSVKGRFTISRDNAKNTVYLQMNSLKPEDTAVYYCAADGYPIYWSSYRFYYWGQGTQVTVSS"
endpoint = "polyreactivity (PSR sort gate)"
testresult = "high polyreactivity"

[[record]]
macromoleculesequence = "QVQLVESGGGLVQAGGSLRLSCAASGSIFRYNAMGWYRQAPGKERELVAAISASGGRTHDADSVKGRFTISRDNAKNTVYLQMNSLKPEDTAVYYCAAATYRGTSLYGYWGQGTQVTVSS"
endpoint = "polyreactivity (PSR sort gate)"
testresult = "high polyreactivity"

[[record]]
macromoleculesequence = "QVQLVESGGGLFQAGGSLRLSCAASGFTIEWYAMGWYRQAPGKERELVATITSSGDSTYYADSEKGRFTISRDNAKNTVYFQMYSLKPEDTAVYYCNVDNSVYDFSEYVYWGQVTQVTVSS"
endpoint = "polyreactivity (PSR sort gate)"
testresult = "high polyreactivity"

[[record]]
macromoleculesequence = "QVQLVESGVGLVQAGGSLRLSCAASGRIFFNNAMGWYIQAPGKERELVAGITSGSSTNYADSVKGRFTISRDNAKNTVYLQMNSLKPEDTAVYYCNAGDFERDVVVFIQHGGYYWGQGTQVTVSS"
endpoint = "polyreactivity (PSR sort gate)"
testresult = "low polyreactivity"

[[record]]
macromoleculesequence = "QVQLVESGGGLVQAGGSLRLSCAASGRTFYNYAMGWYRQAHGKERELVAAIDWGSDSTYYADYVKGRFTISRDNANNTVYLQMNRLKPEDTAVYYCAAYLVSVNSRTYDYWGQGTQVTVSS"
endpoint = "polyreactivity (PSR sort gate)"
testresult = "low polyreactivity"


## Task I am curious: what polyreactivity (PSR sort gate) value has been reported for QVQLVESGGGLVQAGGSLRLSCAASGIIFYYYGMGWSRQAPGKEREFVAAISTSGGNTYYADSVKGRFTISRDNAKNTVYLQMNSLKPEDTAVYYCAADDWPWGDAGVDYWGQGTQVTVSS ?
## Result low polyreactivity

## Task Looking for the measured polyreactivity (PSR sort gate) of QVQLVESGGGLVQAGGSLRLSCAASGRTFGLYDMGWYRQAPGKERELVAGITRRGGCTYYADSVKGRFTISRDNAKNTVYLQMYSLKPEDTAVYYCAAGTIYLRHAQSPFDYWGQGTQVTVSS , can you help?
## Result high polyreactivity

## Task What does the record list as polyreactivity (PSR sort gate) for QVQLVESGGGFVQAGGSLRLSCAASGSIFRGYAMGWYRQAPGKERELVAAIRYSGARTYYADSVKGRFTISRDNAKNTVYLQMNSLKPEDTAVYYCNARYIRSYDYWGQGTQVTVSS ?
## Result high polyreactivity

## Task # polyreactivity (PSR sort gate) lookup, item QVQLVESVGGLVQAGGSLRLSCAASGSIFFNYTMGWYRQAPGKERELVAAINSSGGRTNYADSVKGRFTISRDNAKNTVYLQMNSLKPEDTAVYYCAAVYYDVWYVYWGQGTQVTVSS
## Result low polyreactivity

## Task Find the recorded polyreactivity (PSR sort gate) belonging to QVQIVESGGGLVQAGGSLRLSCAASGIIFYYYAMGWYRQAPGKERELVAAITKSGGSTYYADSVKGRFTISRDNAKNTVYLQMNSLKPEDTAVYYCAAEYSYYPLVGLDYWGQGTQVTVSS and report it.
## Result low polyreactivity

----------
- protocolText: yeast display, Sf9 membrane polyspecificity reagent, FACS + sequencing; frameworks hold sequencing errors
endpoint: polyreactivity (PSR sort gate)

[[record]]
macromoleculesequence = "QVQLVESGGGLVQAGGSLRLSCAASGSTFSNYAMGWYRQAPGKERELVAVITRGASTYYADSVKGRFTISRDNAKNTVYLPMNSLKPEDTAVFYCNVPIRGQLVHTYPYDYWGQGTQVTVSS"
testresult = "high polyreactivity"

[[record]]
macromoleculesequence = "QVQLVESGGGLVQAGGSLRLSCAASGSTFSRNVMGWYRQAPGKERELVAAISRGGSTNYADSVKGRFTISRENAKNTVYLQMNSLKPEDTAVYYCNAPRLGKFYYWGQGTQVTVSS"
testresult = "low polyreactivity"

[[record]]
macromoleculesequence = "QDQLVESGGGLVQAGGSIRLSCAASGGIFESYAMGWYRQAPGKEREMVASISSGGSTYYADSVKGRFTISRDNAKNTVYLQMNSLKPEDTAVYYCNKDYRSVYKGRGFDYWGQGTQVTVSS"
testresult = "low polyreactivity"

[[record]]
macromoleculesequence = "QVQLVESGGGLGQAGGSLRLSCAASGRTLGAYAMGWYRQAPGKERELVAAISGSGGSTYYADSVKGRFTISRDNAKNTVYLQMNSLKPEDTAVYYCAAVLSRYGQSISMYYWGQGTQVTVSS"
testresult = "high polyreactivity"

[[record]]
macromoleculesequence = "QVQLVESGGGLVQAGGSLRLSCAASGSILAGYAMGWYRQAPGKERELVAAITTGGGSTYYADSVKGRFTISRDNAKNTVYLQMNSLKPEDTAVYYCAAYRKPGSWTWWVRGYGYWGQGTQVTVSS"
testresult = "low polyreactivity"

[[record]]
macromoleculesequence = "QVQLVESGGGLVQAGGSLRLSCAASAYNFDGYAMGWYRQAPGKERELVAAINSGGGTYYADSVKGRFTISRDNAKNTVYLQMNSLKPEDTAVYYCAKYTYDYWGQGTQVTVSS"
testresult = "low polyreactivity"


## Task GET /values?readout=polyreactivity (PSR sort gate)&item= QVQLVESGGGLVQAGGSLRLSCAASGYIFFNAMGWYRQAPGKERELVAAITYPVGSTHYADSVKGRFTISRDNAKNTVYLQMNSLKPEDTAVYYCAAEWYQYLRWYWTYEYYWGQGTQVTVSS
## Result low polyreactivity

## Task // lookup polyreactivity (PSR sort gate) for QVQLVESGGGIVQAGGSLRLSSAASGSTFYAYTMGWYRQAPGKERELVAAISSGGGTYYADSVKGRFTISRDNAKNTVYLQMNSLKPEDTAVYYCNADWRVGRQLSKAKIPYDYWGQGTQVTVSS
## Result low polyreactivity

## Task Given QVQLVESGGGLVQAGGSLRLSCAASGSIFEVNAMGWYRQAPGKERELVAAISCSGGSTYYADSVKGRFTISRDNAKNTVYLQMNSLKPEDTAVYYCAADWRQGLWYGYYYWGQGTQVTVSS , state its recorded polyreactivity (PSR sort gate).
## Result low polyreactivity

## Task Which polyreactivity (PSR sort gate) reading was recorded for the sequence QVQLVESGGVLVQAGGSLRLSCAASGRIFTGNAMGWYRQAPGKETELVAAISRRGTRTYYADSVKGRFTISRDNAKNTVYLQMNSLKPEDTAVYYCATVLYKAYNDYGYWGQGTQVTVSS ?
## Result high polyreactivity

## Task Need polyreactivity (PSR sort gate) of QVQLVESGGGLVQAGGSLRLSCAASGSILRTYTMGWYRQAPGKERELVAAISSSGGRTYYADSVKGRFTISRDNAKNTVYLQMNSLKPEDTAVYYCNAAYTTWRRGPMNYWGQGTQVTVSS , thanks.
## Result high polyreactivity

----------
- protocolText: yeast display, Sf9 membrane polyspecificity reagent, FACS + sequencing; frameworks hold sequencing errors
endpoint: polyreactivity (PSR sort gate)

[[record]]
macromoleculesequence = "QVQLVESGGGLVHAGGSLRLSCAASGSIFIYYAMGWYRQPPGKERELVAAIDRSGGNTYYADSVKGRFTISRDYAKTSVYLEMNSLKPEDTAVDYCAAQVHRRVQYDYWGQRTQVTVSS"
testresult = "high polyreactivity"

[[record]]
macromoleculesequence = "QVQLVESGGCLVQAGGSLRLSCAASGFTFLDYVMGWYRPAPGKERELVAVITVSGGSTYYADSVKGRFTISRDNAKNTVYLQMTSLKPEDTAVYYCNAYTIEYPFGDSYWYNYDYWGQGTQVTVSS"
testresult = "high polyreactivity"


----------
- protocolText: yeast display, Sf9 membrane polyspecificity reagent, FACS + sequencing; frameworks hold sequencing errors
endpoint: polyreactivity (PSR sort gate)

Completed entries (count: 4):
[[record]]
macromoleculesequence = "QVQLVESGGGLVQAGGSLRLSCAASGFIFSKNVMGWYRQAPGKERELVARITRSGGTTYYADSVKVRFTISRDNAKNTVYLQMHRLKQEDTAVYYCAARRYGYTSITWYDYWGQGTQVTVSS"
testresult = "high polyreactivity"

[[record]]
macromoleculesequence = "QVQLVESGGGLVQAGGSLRLSCAASGSIFITYVMGWSRQAPGKERELVAGISRSGGSTYYADSVKGRFTISRYNAKNTVYLQMNSLKPEDTAVYYCAAFFLRRPGSSGLRLLGQGTQVTVSS"
testresult = "high polyreactivity"

[[record]]
macromoleculesequence = "QVQLVESGGGLVQAGGSLRLSCPASGSIFDYYAMGWYRQPPGKEREMVAAINISGGDTYYADSVKGRFTISRDNAKNTVYLQMNSLKPEDTAVYYCAADWVTWWFSRVGWDYGYWGQGTQVTVSS"
testresult = "low polyreactivity"

[[record]]
macromoleculesequence = "QVQLVESGGGLVQAGGSLRLSCAASGSIFERYAMGWYRQAPGKERELVATISKSGDSTYYADSVKGRFTISRDNAKNTVYLQMNSQKPEDTAVYYCAADGWSETSDATFYYWGQGTQVTVSS"
testresult = "low polyreactivity"


API: the following record is the query input.
## Task Data request, read-out polyreactivity (PSR sort gate), for QVQLVESGGGLFQAGGSLRLSCAASGSIFGYYAMGWYIQAPGKERELVARISYSGGTTYYADSVKGRFTISRDNAKNTVYLQMNSLKPEDTAVYYCNARIPYSWRYGYWGQGTQVTVSS
## Result high polyreactivity
